Please find below log10 IC50 measurements for human DGAT1 (Homo sapiens), combined from several publications.
QUANTITY KIND: log10 IC50 (log10 of the value in nM)

{"COMPOUND": "CCCCCCCNC(=O)N1CC(C)Oc2cc(-c3ccc([C@H]4CC[C@H](CC(=O)O)CC4)cc3)ccc21 (stereo partly shown)", "log10 IC50": 1.85}
{"COMPOUND": "O=C(Nc1ccc(N2CCN(C(=O)NCc3ccccc3)CC2)cc1)c1ccccc1-c1ccc(C(F)(F)F)cc1", "log10 IC50": 3.74}
{"COMPOUND": "O=C(O)c1cncc(OC2CCN(c3ccc(-c4nc5cc(C(F)(F)F)ccc5[nH]4)cn3)CC2)c1", "log10 IC50": 1.45}
{"COMPOUND": "O=C(Nc1ccc(N2CCN(C(=O)Nc3c(Cl)cccc3Cl)CC2)cc1)c1cccc(-c2cnco2)c1", "log10 IC50": 1.08}
{"COMPOUND": "O=C(NCCNC(=O)c1cc(F)c(O[C@H]2CC[C@@H](C(=O)O)CC2)cc1F)c1ccc2ccccc2c1", "log10 IC50": 0.00}
{"COMPOUND": "O=C(CCN1CCCCC1)Nc1ccc(N2CCN(C(=O)Nc3c(Cl)cccc3Cl)CC2)cc1", "log10 IC50": 3.12}
{"COMPOUND": "COCCNC(C)c1cc(Cl)c(NC(=O)N2CCN(c3ccc(NC(=O)CCCc4ccccc4)cc3)CC2)c(Cl)c1 (stereo not shown)", "log10 IC50": 0.60}
{"COMPOUND": "O=C(CCCc1ccccc1)Nc1ccc(N2CCN(C(=O)Nc3c(F)cc(F)cc3F)CC2)cc1", "log10 IC50": 1.88}
{"COMPOUND": "CCOC(=O)c1ccccc1NC(=O)N1CCN(c2ccc(NC(=O)c3ccccc3-c3ccc(C(F)(F)F)cc3)cc2)CC1", "log10 IC50": 3.87}
{"COMPOUND": "O=C(Nc1cccc(N2CCCC2)c1)c1ccc(N2CCN(C(=O)Nc3c(Cl)cc(CN4CCCC4)cc3Cl)CC2)cc1", "log10 IC50": 0.86}
{"COMPOUND": "Cc1cccc(C)c1NC(=O)N1CCN(c2ccc(NC(=O)c3ccccc3-c3ccc(C(F)(F)F)cc3)cc2)CC1", "log10 IC50": 2.43}
{"COMPOUND": "O=C(O)Cc1cccc(C(=O)Nc2ccc(N3CCN(C(=O)Nc4c(Cl)cc(CN5CCCCC5)cc4Cl)CC3)cc2)c1", "log10 IC50": 3.52}
{"COMPOUND": "O=C(Nc1ccc(N2CCN(C(=O)Nc3c(Cl)cccc3Cl)CC2)cc1)c1cccc(N2CCCC2=O)c1", "log10 IC50": 1.04}
{"COMPOUND": "O=C(CNC1CCCCC1)Nc1ccc(N2CCN(C(=O)Nc3c(Cl)cccc3Cl)CC2)cc1", "log10 IC50": 2.61}
{"COMPOUND": "O=C(CCCc1ccccc1)Nc1ccc(N2CCN(C(=O)Nc3c(Cl)cc(OC(F)(F)F)cc3Cl)CC2)cc1", "log10 IC50": 1.47}
{"COMPOUND": "CCC1(CC(=O)O)CCc2cc(-c3ccc(NC(=O)Nc4cccc(Cl)c4)cc3Cl)ccc2C1=O (single isomer, unassigned)", "log10 IC50": 0.77}
{"COMPOUND": "O=C(CCC(O)c1ccccc1)Nc1ccc(N2CCN(C(=O)Cc3c(Cl)cccc3Cl)CC2)cc1 (stereo not shown)", "log10 IC50": 2.55}
{"COMPOUND": "O=C(NCC12CC3CC(CC(C3)C1)C2)c1ccc(N2CCN(C(=O)Nc3c(Cl)cc(CN4CCCC4)cc3Cl)CC2)cc1", "log10 IC50": 2.11}
